pIC50 values recorded for Carbonic anhydrase 2 (Homo sapiens)
Conceptually, pIC50 converts a concentration in mol/L into minus its log10.

Below, each entry is followed by its recorded pIC50 result.
> print(dat)
                                smiles.repr  reported.metric  endpoint.value
1  NS(=O)(=O)c1ccc(NC=C2C(=O)c3ccccc3C2=O)cc1            pIC50            5.47
2  CC1(C)OC(=O)C(=CNc2ccc(S(N)(=O)=O)cc2)C(=O)O1            pIC50            4.73

Incoming: Give Carbonic anhydrase 2 (Homo sapiens) pIC50 for CN1C(=O)C(=CNc2ccc(S(N)(=O)=O)cc2)C(=O)N(C)C1=O
Outgoing: 5.60

Incoming: Give Carbonic anhydrase 2 (Homo sapiens) pIC50 for NS(=O)(=O)c1ccc(NC=C2C(=O)NC(=O)NC2=O)cc1
Outgoing: 5.00

---

IC50 values recorded for Carbonic anhydrase 1 (Homo sapiens)
Just the number in µM, nothing appended.

Below, each entry is followed by its recorded IC50 result.
> print(dat)
                                smiles.repr  reported.metric  endpoint.value
1     NS(=O)(=O)c1ccc(NC=C2C(=O)CCCC2=O)cc1             IC50            4.25
2  CC1(C)OC(=O)C(=CNc2ccc(S(N)(=O)=O)cc2)C(=O)O1             IC50            6.56

Incoming: Fill in: IC50 of CN1C(=O)C(=CNc2ccc(S(N)(=O)=O)cc2)C(=O)N(C)C1=O is ___
Outgoing: 5.2

Incoming: Fill in: IC50 of NS(=O)(=O)c1ccc(NC=C2C(=O)NC(=O)NC2=O)cc1 is ___
Outgoing: 10.9

Incoming: Fill in: IC50 of CC1(C)CC(=O)C(=CNc2ccc(S(N)(=O)=O)cc2)C(=O)C1 is ___
Outgoing: 2.12
